molecular target: Aminopeptidase N (Plasmodium falciparum (isolate 3D7)); assay: malaria alanyl aminopeptidase activity blockers – biochemical, fluorogenic H-Leu-NHMec substrate, 1536-well (AID 1445); conditions: recombinant M1AAP, H-Leu-NHMec fluorogenic kinetic assay; at 30 µM, active compounds read high unless noted;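 further: plate controls were DMSO full reaction for no effect and no enzyme background for full effect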
In all, about 220,000 compounds went through this assay and about 910 (0.41%) were called active. For the sample, actives were picked, then their nearest neighbours and some compounds at random. Measured potencies and affinities stand elsewhere.
Exercise: for every item that follows, state its recorded inhibition.
Answers are plain numbers, in %.

Field: example entries. Status: answers known.
CCOP(=O)(OCC)c1nc(-c2cccc3ccccc23)oc1NCc1ccc(OC)cc1 ... 16.1
Cc1noc(C)c1S(=O)(=O)N1CCCC(C(=O)N2CCN(C3CCCCC3)CC2)C1 (stereo unspecified) ... 8.08
O=c1[nH]c(Cc2ccccc2Cl)nc2ccccc12 ... -2.4
O=C(Cc1ccc(-c2ccccc2)cc1)NCc1ccccc1 ... -0.4
CCCCN(C)c1c(N2CCC(C(=O)OCC)CC2)c(=O)c1=O ... 12.2
COn1c(SCc2cccnc2)nc2ccccc2c1=O ... -0.13
CCOC(=O)c1c(N2C(=O)Nc3ccccc3N2O)sc2c1CCCC2 ... 4.01
Cc1ccc(C2=Nc3ccc(Br)cc3C(c3ccncc3)=NN2)cc1 ... -0.32

Hi there! I need inhibition for each item below, if you can.
1. CCOc1ccccc1NC(=S)NCCCn1ccnc1
2. Cc1cc(C)nc(NC(=O)/C=C/c2ccc3c(c2)OCO3)c1
3. O=C1N(Cc2ccccc2)CCCC12CCCN(Cc1ccccc1)C2=O

Result:
1. -1.93
2. 4.5
3. 8.22
